# system-under-test: T1, cynomolgus monkey BCMA (cynomolgus monkey, UniProt A0A2K5UD97 1-53)
# T1 construct: Soluble analyte in SPR; construct not described; also called cyBCMA; Cyno BCMA
# T1 sequence (A0A2K5UD97 entry or part of it): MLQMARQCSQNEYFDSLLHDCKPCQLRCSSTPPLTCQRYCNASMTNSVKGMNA
# protocol-details: SPR, IgG on chip, cyBCMA analyte, 37C
Output TRUE for T½ not less than 3 min; output FALSE otherwise.

Consider the following illustrative entries.
{"binder": "L3.PY/L3.KY/H3.YA (antibody, V domains shown, IgG) VH: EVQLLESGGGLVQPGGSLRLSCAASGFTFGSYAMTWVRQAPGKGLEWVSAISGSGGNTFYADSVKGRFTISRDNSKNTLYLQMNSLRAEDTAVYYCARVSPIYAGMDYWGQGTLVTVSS VL: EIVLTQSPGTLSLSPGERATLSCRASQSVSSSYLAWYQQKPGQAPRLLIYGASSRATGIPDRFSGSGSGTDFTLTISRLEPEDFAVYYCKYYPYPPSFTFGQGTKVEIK", "class-name": "FALSE"}
{"binder": "L3.PY/L3.KF/H3.TAQ (antibody, V domains shown, IgG) VH: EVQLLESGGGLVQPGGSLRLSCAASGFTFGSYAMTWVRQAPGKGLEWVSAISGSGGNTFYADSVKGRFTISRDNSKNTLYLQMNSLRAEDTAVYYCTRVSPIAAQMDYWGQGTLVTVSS VL: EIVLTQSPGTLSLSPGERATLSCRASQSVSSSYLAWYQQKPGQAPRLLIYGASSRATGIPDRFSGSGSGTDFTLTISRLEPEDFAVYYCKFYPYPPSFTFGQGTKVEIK", "class-name": "TRUE"}
{"binder": "L3.PY/L3.KF/H3.AE (antibody, V domains shown, IgG) VH: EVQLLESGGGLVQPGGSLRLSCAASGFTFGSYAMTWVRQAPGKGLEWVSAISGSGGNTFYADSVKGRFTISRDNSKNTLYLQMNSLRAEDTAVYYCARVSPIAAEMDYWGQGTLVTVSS VL: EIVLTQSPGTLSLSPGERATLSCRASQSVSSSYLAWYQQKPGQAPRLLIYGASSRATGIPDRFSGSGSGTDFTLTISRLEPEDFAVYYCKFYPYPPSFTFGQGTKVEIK", "class-name": "FALSE"}
{"binder": "L3.PY/L1.FF/H2.QL (antibody, V domains shown, IgG) VH: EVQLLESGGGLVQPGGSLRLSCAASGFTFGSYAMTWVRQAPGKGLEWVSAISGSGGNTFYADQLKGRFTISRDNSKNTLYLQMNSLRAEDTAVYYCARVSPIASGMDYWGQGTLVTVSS VL: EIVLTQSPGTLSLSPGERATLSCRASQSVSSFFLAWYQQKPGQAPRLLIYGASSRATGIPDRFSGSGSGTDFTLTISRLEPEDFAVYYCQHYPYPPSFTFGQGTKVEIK", "class-name": "FALSE"}

Moving on to another binder below.
Q: Is the recorded value of T½ equal to or greater than 3 min for this binder? L3.PY/L1.FF/H2.YQ (antibody, V domains shown, IgG) VH: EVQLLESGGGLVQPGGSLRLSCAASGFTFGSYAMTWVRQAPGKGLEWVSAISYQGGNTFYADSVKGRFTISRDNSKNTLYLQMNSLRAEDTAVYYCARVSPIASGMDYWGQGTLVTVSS VL: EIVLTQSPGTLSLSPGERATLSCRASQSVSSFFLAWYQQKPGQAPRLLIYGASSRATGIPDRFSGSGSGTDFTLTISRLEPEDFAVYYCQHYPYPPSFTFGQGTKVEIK
A: TRUE
